ASSAY NAME: Volume of distribution at steady state in male Sprague-Dawley rat at 4 mg/kg, iv measured up to 24 hrs by LC-MS/MS analysis
Format: ADME, organism-based
TEST CONDITIONS: in vivo, read-out: Vdss
TEST READOUT: Vd (L/kg)
Express your answer in L/kg, writing the number without its unit.

Request: Would you kindly share the measured Vd for "Cc1cc(CN[C@H](CO)C(=O)O)c(OCc2cncc(C#N)c2)cc1NCc1cccc(-c2ccccc2)c1C" ?
Response: 2.17

###

ASSAYED SYSTEM: Programmed cell death protein 1/Programmed cell death 1 ligand 1 (Homo sapiens, UniProt Q9NZQ7)
Sequence (Q15116 whole entry): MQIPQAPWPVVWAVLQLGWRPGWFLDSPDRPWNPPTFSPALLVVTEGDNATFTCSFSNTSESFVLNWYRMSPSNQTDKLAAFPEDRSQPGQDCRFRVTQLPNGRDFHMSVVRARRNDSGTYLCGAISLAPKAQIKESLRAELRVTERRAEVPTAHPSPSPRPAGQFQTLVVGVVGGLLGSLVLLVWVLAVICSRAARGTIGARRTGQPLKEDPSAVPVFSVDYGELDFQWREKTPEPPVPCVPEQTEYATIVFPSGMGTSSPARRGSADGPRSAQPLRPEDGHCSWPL
Sequence (Q9NZQ7 whole entry): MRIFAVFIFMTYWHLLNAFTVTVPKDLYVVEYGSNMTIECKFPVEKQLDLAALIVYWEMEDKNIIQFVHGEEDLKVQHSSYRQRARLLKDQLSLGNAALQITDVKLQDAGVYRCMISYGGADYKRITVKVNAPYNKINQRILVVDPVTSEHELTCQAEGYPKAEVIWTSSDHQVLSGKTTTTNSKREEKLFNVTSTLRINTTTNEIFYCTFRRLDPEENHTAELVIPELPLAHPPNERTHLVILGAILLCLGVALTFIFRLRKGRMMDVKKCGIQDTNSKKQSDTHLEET
ASSAY NAME: Inhibition of PD1-Tag2/PD-L1-Tag1 (unknown origin) protein-protein interaction preincubated for 15 mins followed by addition of anti-Tag1-Eu3+ and anti-Tag2-XL665 measured after 2.5 hrs by HTRF assay
TEST READOUT: log10(IC50) (log10 of the value in nM)
Note the log scale: values are log10 of IC50 expressed in nM.

// known answers, use as guide
COMPOUND STRUCTURE STRING: Cc1cc(CN[C@H](CO)C(=O)O)c(OCc2cncc(C#N)c2)cc1NCc1cccc(-c2ccc3c(c2)OCCO3)c1C
log10(IC50): 1.64
//
COMPOUND STRUCTURE STRING: Cc1cc(CN[C@H](CO)C(=O)O)c(OCc2ccccc2)cc1NCc1cccc(-c2ccccc2)c1C
log10(IC50): 3.41
//
COMPOUND STRUCTURE STRING: Cc1cc(NCc2cccc(-c3ccccc3)c2C)cc(OCc2cncc(C#N)c2)c1CN[C@H](CO)C(=O)O
log10(IC50): 2.64
//
COMPOUND STRUCTURE STRING: Cc1c(CNc2cc(OCc3cncc(C#N)c3)c(CN[C@H](CO)C(=O)O)cc2Cl)cccc1-c1ccc2c(c1)OCCO2
log10(IC50): 2.12

Request: Return reported log10(IC50); argument: "Cc1cc(CN[C@H](CCO)C(=O)O)c(OCc2cncc(C#N)c2)cc1NCc1cccc(-c2ccccc2)c1C"
Response: 1.56

Request: Moving on to the next compound: "COc1cc(NCc2cccc(-c3ccccc3)c2C)c(C)cc1CN[C@H](CO)C(=O)O"
Response: 2.40

Data provenance: ChEMBL document CHEMBL4673285
